# Assay target: T1, human IL-1α (human, UniProt P01583 113-271)
# T1 sequence (looked up): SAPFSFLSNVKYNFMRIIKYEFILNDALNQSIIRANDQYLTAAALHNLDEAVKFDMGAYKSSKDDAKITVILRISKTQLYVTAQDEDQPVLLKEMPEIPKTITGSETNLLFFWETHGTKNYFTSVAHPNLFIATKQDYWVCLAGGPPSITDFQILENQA
# Assay remarks: cell-based or functional assay
// boundary case: ND50 equal to 20 nM maps to F; strictly smaller maps to T

Study these solved cases before continuing.
- Binder: "ABT1-95-174 (other) VL: DIQMTQSPSSLSASVGDRVTITCRASRPIVRNLRWYQQKPGKAPKLLIYSVSYLEPGVPSRFSGSGSGTDFTLTISSLQPEDFATYHCRQGYRWPVTFGQGTKVEIKR"
  Assigned category: "T"
- Binder: "ABT1-122-21 (other, VK dAb) VL: DIQMTQSPSSLSASVGDRVTITCRASQPIWTELNWYQQKPGKAPKLLIYGSSSLQSGVPTRFSGSGSGTDFTLTISSLQPEDFATYYCQQFAYFPATFGQGTKVEIKR"
  Assigned category: "F"
- Binder: "ABT1-10 (other) VL: DIQMTQSPSSLSASVGDRVTITCRASQSIVPNLRWYQQKPGKAPKLLIYGASTLQSGVPSRFSGSGSGTDFTLTISSLQPEDFATYYCQQGYVYPGTFGQGTKVEIKR"
  Assigned category: "F"
- Binder: "ABT1-95-115 (other, VK dAb) VL: DIQMTQSPSSLSASVGDRVTITCRASQPIVRNLRWYQQKPGKAPKLLIYSSSYLEPGVPSRFSGSGSGTDFTLTISSLQPEDFATYHCLQGYRWPVTFGQGTKVEIKR"
  Assigned category: "T"

Confirm or reject: ND50 of ABT1-95-27 (other, VK dAb) VL: DIQMTQSPSSLSASVGDRVTITCRASQPIVRNLRWYQQKPRKAPKLLIYSSSYLEPGVPSRFSGSGSGTDFTLTISSLQPEDFATYYCAQGYRWPVTFGQGTKVEIKR lies strictly below 20 nM
T

Confirm or reject: ND50 of ABT1-3 (other) VL: DIQMTQSPSSLSASVGDRVTITCRASQSIWTELKWYQQKPGKAPKLLIYGASLLQSGVPSRFSGSGSGTDFTLTISSLQPEDFATYYCQQFAYFPFTFGQGTKVEIKR lies strictly below 20 nM
F

Confirm or reject: ND50 of ABT1-95-118 (other, VK dAb) VL: DIQMTQSPSSLSASVGDRVTITCRASQPIVRNLRWYQQKPGKAPKLLIYSSSYLEPGVPSRFSGSGSGTDFTLTISSLQPEDFATYHCSQGYRWPVTFGQGTKVEIKR lies strictly below 20 nM
T
